B1: EHEE_rd3_0053 (parent)
chain: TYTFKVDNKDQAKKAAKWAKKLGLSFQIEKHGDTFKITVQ

# Variants of: B1
# ASSAY INFO: folding stability dG (cDNA display proteolysis); higher = more stable
# TEST CONDITIONS: PBS, room temperature
Reported values of folding stability dG for individual entries
READOUT: folding stability dG (kJ/mol)

V39A: 3
V6D: -0.243
F26C: 11.2
F35K: -4.14
Y2L: 9.42
D33R: 8.81
Y2E: 2.87
K21V: 7.92
A15N: 1.58
G23D: 4.25
W18S: 3.13
K14W: 10
K30F: 8
G23P: -3.38
K13N: 9.5
